- SUBJECT_OF_TEST: human GLP-1 receptor (Homo sapiens, UniProt P43220)
- Sequence (P43220 24-463): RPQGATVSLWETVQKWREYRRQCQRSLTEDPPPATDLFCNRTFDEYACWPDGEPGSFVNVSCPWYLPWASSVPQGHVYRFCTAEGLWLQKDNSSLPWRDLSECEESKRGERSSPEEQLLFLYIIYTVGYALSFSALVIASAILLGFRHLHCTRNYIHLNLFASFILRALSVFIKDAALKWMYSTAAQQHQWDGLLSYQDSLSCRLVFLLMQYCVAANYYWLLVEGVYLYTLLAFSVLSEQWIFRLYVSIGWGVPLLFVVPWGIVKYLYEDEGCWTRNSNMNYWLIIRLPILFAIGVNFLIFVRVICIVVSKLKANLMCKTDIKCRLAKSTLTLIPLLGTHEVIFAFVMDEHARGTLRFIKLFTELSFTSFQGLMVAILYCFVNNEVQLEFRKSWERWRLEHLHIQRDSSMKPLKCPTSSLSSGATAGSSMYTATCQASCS
- EXPERIMENT_SUMMARY: cAMP production assay in CHO cells expressing human GLP-1 receptor
- Assay type: cell-based
- MEASUREMENT_SETUP: Table 18; maximum activation compared to GLP-1
QUANTITY: % Max Effect

HS9_DSB7_I23T: HS9_DSB7 with peptide point mutation I23T; SEQ ID NO: 457 (protein) HGEGTFTSDLSKQMEEECVRLFTEWLKNGGPSSGAPPPGCGGGGGSGGGGSGGGGSADIQMTQSPSSLSASVGDRVTITCQASQDVKTAVAWYQQKPGKAPKLLIYSASYRYTGVPSRFSGSGSGTDFTFTISSLQPEDIATYYCQQRYSLWRTFGQGTKLEIK    Inactive
HS9_DSB7_L26D: HS9_DSB7 with peptide point mutation L26D; SEQ ID NO: 471 (protein) HGEGTFTSDLSKQMEEECVRLFIEWDKNGGPSSGAPPPGCGGGGGSGGGGSGGGGSADIQMTQSPSSLSASVGDRVTITCQASQDVKTAVAWYQQKPGKAPKLLIYSASYRYTGVPSRFSGSGSGTDFTFTISSLQPEDIATYYCQQRYSLWRTFGQGTKLEIK    Inactive
HS9_DSB7_L26S: HS9_DSB7 with peptide point mutation L26S; SEQ ID NO: 462 (protein) HGEGTFTSDLSKQMEEECVRLFIEWSKNGGPSSGAPPPGCGGGGGSGGGGSGGGGSADIQMTQSPSSLSASVGDRVTITCQASQDVKTAVAWYQQKPGKAPKLLIYSASYRYTGVPSRFSGSGSGTDFTFTISSLQPEDIATYYCQQRYSLWRTFGQGTKLEIK    Inactive

Cited source for all entries: patent US10077319B2
